Assay: clinical
Parameters: species or system human
Settings: human, in vivo, iv, 100 mg
Positions of bridges follow the written chain, without caps; N, C: chain ends. Non-standard residues stand in square brackets, D forms with d. Residues, ends and D or L forms follow the SMILES beside them. *: point of attachment. X1 = NC[C@@H](CC(=O)*)c1cccc(Cl)c1; Dab = NCC[C@H](N)C(=O)O; Dap = NC[C@H](N)C(=O)O
Readout type: Tmax (h)
Give the value, in units of h, as a plain number.

// query Tmax value for entry CC(C)C[C@@H]1NC(=O)[C@@H](Cc2ccccc2)NC(=O)[C@H](CCN)NC(=O)[C@@H](NC(=O)[C@H](CN)NC(=O)[C@@H](NC(=O)C[C@H](CN)c2cccc(Cl)c2)[C@@H](C)O)CCNC(=O)[C@H]([C@@H](C)O)NC(=O)[C@H](CCN)NC(=O)[C@H](CCN)NC1=O [SPR206] (X1-T[Dap][Dab][Dab][dF]L[Dab][Dab]T; lactam 3-C (inferred))
1.1

* * *

Assay: clinical
Parameters: species or system human
Details: human, in vivo, iv, 10 mg, Cmax
Positions of bridges follow the written chain, without caps; N, C: chain ends. Non-standard residues stand in square brackets, D forms with d. Residues, ends and D or L forms follow the SMILES beside them. *: point of attachment. X1 = NC[C@@H](CC(=O)*)c1cccc(Cl)c1; Dab = NCC[C@H](N)C(=O)O; Dap = NC[C@H](N)C(=O)O
Readout type: Cmax (ng/mL)
Give the value, in units of ng/mL, as a plain number.

Looking for the measured Cmax of CC(C)C[C@@H]1NC(=O)[C@@H](Cc2ccccc2)NC(=O)[C@H](CCN)NC(=O)[C@@H](NC(=O)[C@H](CN)NC(=O)[C@@H](NC(=O)C[C@H](CN)c2cccc(Cl)c2)[C@@H](C)O)CCNC(=O)[C@H]([C@@H](C)O)NC(=O)[C@H](CCN)NC(=O)[C@H](CCN)NC1=O [SPR206] (X1-T[Dap][Dab][Dab][dF]L[Dab][Dab]T; lactam 3-C (inferred)) , can you help?
495

* * *

Assay: clinical
Parameters: species or system human
Conditions: human, in vivo, iv, 100 mg, Vz
Positions of bridges follow the written chain, without caps; N, C: chain ends. Non-standard residues stand in square brackets, D forms with d. Residues, ends and D or L forms follow the SMILES beside them. *: point of attachment. X1 = NC[C@@H](CC(=O)*)c1cccc(Cl)c1; Dab = NCC[C@H](N)C(=O)O; Dap = NC[C@H](N)C(=O)O
Readout type: Vd (L)
Express it in L; write the number only.

Which Vd value is on record for CC(C)C[C@@H]1NC(=O)[C@@H](Cc2ccccc2)NC(=O)[C@H](CCN)NC(=O)[C@@H](NC(=O)[C@H](CN)NC(=O)[C@@H](NC(=O)C[C@H](CN)c2cccc(Cl)c2)[C@@H](C)O)CCNC(=O)[C@H]([C@@H](C)O)NC(=O)[C@H](CCN)NC(=O)[C@H](CCN)NC1=O [SPR206] (X1-T[Dap][Dab][Dab][dF]L[Dab][Dab]T; lactam 3-C (inferred)) ?
21.4

* * *

Assay: clinical
Parameters: species or system human
Conditions: human, in vivo, 150 mg, Vz
Positions of bridges follow the written chain, without caps; N, C: chain ends. Non-standard residues stand in square brackets, D forms with d. Residues, ends and D or L forms follow the SMILES beside them. *: point of attachment. X1 = NC[C@@H](CC(=O)*)c1cccc(Cl)c1; Dab = NCC[C@H](N)C(=O)O; Dap = NC[C@H](N)C(=O)O
Readout type: Vd (L)
Answer format: numeric, L implied, no suffix.

Quick check: Vd of CC(C)C[C@@H]1NC(=O)[C@@H](Cc2ccccc2)NC(=O)[C@H](CCN)NC(=O)[C@@H](NC(=O)[C@H](CN)NC(=O)[C@@H](NC(=O)C[C@H](CN)c2cccc(Cl)c2)[C@@H](C)O)CCNC(=O)[C@H]([C@@H](C)O)NC(=O)[C@H](CCN)NC(=O)[C@H](CCN)NC1=O [SPR206] (X1-T[Dap][Dab][Dab][dF]L[Dab][Dab]T; lactam 3-C (inferred)) ?
17.1
